B1: P2RY14 (parent)
chain: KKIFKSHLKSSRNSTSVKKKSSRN

# Variants of: B1
# Assay summary: protein stability index of a GFP-peptide fusion (GPS, HEK-293T) (PSI 1-6); higher = more stable;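 note: lentivirally expressed fusions sorted by FACS into six bins by GFP to DsRed ratio, PSI derived from sequencing read proportions per bin multiplied by bin number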
# Experimental context: c terminus: a fixed tail appended
Rule: Criterion met for protein stability index not less than 4, Criterion not met for anything less.

Prompt line: # check: protein stability index of S14Q is greater than or equal to 4
Response line: Criterion not met

Prompt line: # check: protein stability index of S22I is greater than or equal to 4
Response line: Criterion met

Prompt line: # check: protein stability index of T15A is greater than or equal to 4
Response line: Criterion met

Prompt line: # check: protein stability index of K18C is greater than or equal to 4
Response line: Criterion not met

Prompt line: # check: protein stability index of L8Y is greater than or equal to 4
Response line: Criterion not met

Prompt line: # check: protein stability index of S22G is greater than or equal to 4
Response line: Criterion met

Prompt line: # check: protein stability index of K18S is greater than or equal to 4
Response line: Criterion met

Prompt line: # check: protein stability index of L8G is greater than or equal to 4
Response line: Criterion met

Prompt line: # check: protein stability index of K2M is greater than or equal to 4
Response line: Criterion not met

Prompt line: # check: protein stability index of S16N is greater than or equal to 4
Response line: Criterion met

Prompt line: # check: protein stability index of K18I is greater than or equal to 4
Response line: Criterion not met

The values you see were collected from the supplement of paper PMC10567573.
